target or system: Human immunodeficiency virus type 1 protease (Human immunodeficiency virus 1, UniProt Q72874)
assay: Inhibitory activity against HIV PR in HIV-1 infected CEM-SS cell lines
property: IC50 (µM)
Give bare numbers, in µM.

Solved entries:
CC(C)N1CCC(CC(O)CCc2ccccc2C(=O)NC(C)(C)C)=C(C(=O)NC(C)(C)C)C1 (stereo unspecified) = 70
CC(C)(C)NC(=O)c1ccccc1SCC(O)Cc1ccc2ccccc2c1C(=O)NC(C)(C)C (stereo unspecified) = 25

Go through the list and state IC50 for each entry.
1. CC(C)(C)NC(=O)c1ccccc1C#CC(O)Cc1ccccc1C(=O)NC(C)(C)C (stereo unspecified)
2. CC(C)(C)NC(=O)c1cc(C(C)(C)C)ccc1CCC(O)Cc1ccc(C(C)(C)C)cc1C(=O)NC(C)(C)C (stereo unspecified)

1: 200; 2: 7

====

target or system: Human immunodeficiency virus type 1 protease (Human immunodeficiency virus 1, UniProt Q72874)
assay: Inhibitory activity against HIV PR in HIV-1 infected CEM-SS cell lines
property: pKi
Give bare numbers, as −log10 of the molar value.

Solved entries:
CC(C)(C)NC(=O)c1ccccc1CCC(O)Cc1ccccc1C(=O)NC(C)(C)C (configuration not stated) = 4.62
CC(C)(C)NC(=O)c1ccccc1CCC(O)Cc1ccc2ccccc2c1C(=O)NC(C)(C)C (configuration not stated) = 5.66
CC(C)(C)NC(=O)c1ccccc1CC(O)CSc1ccccc1C(=O)NC(C)(C)C (configuration not stated) = 4.08
CC(C)(C)NC(=O)c1cc(C(C)(C)C)ccc1CCC(O)Cc1ccc2ccccc2c1C(=O)NC(C)(C)C (configuration not stated) = 5.92

Go through the list and state pKi for each entry.
1. CC(C)(C)NC(=O)c1c(CC[C@@H](O)Cc2ccc3ccccc3c2C(=O)NC(C)(C)C)ccc2ccccc12
2. CC(C)(C)NC(=O)c1c(CC[C@H](O)Cc2ccc3ccccc3c2C(=O)NC(C)(C)C)ccc2ccccc12
3. CC(C)(C)NC(=O)c1c(CCC(O)Cc2ccc3ccccc3c2C(=O)NC(C)(C)C)ccc2ccccc12 (configuration not stated)

4.60
6.32
5.85
